Below, each of the compounds is paired with its reported TGI value.
- System: HT29 colon
- Experimental protocol: NCI tumour cell line growth inhibition, 48 h
Experimental readout: TGI

Compound: COC(=O)[C@H]1ON2O[C@H](OC3CCCC[C@@H]3c3ccccc3)C[C@@H]3CC[C@H]1[C@@]32C (stereo partly specified)
Result value: > 100 µM
//
Compound: Nc1n[nH]c(=O)c2c1c(Br)cn2C1OC(CO)C(O)C1O (stereo unspecified)
Result value: > 100 µM
//
Compound: O=S(O)CCCSSCCCCSSCCCS(=O)O
Result value: > 100 µM
//
Compound: COC(=O)c1ccc2[nH]c3c(c2c1)CC(=O)Nc1ccccc1-3
Result value: > 100 µM
//
Compound: CCC1(CC)C(=O)N(C(=O)c2ccc(Cl)cc2)N(C(=O)c2ccccc2Cl)C1=O
Result value: 22.6 µM
//
Compound: CN(C)CCCn1c2c(c3ccc([N+](=O)[O-])cc3c1=O)C(=O)c1ccccc1-2
Result value: 21.3 µM
//
Compound: O=C(Cl)c1cc([N+](=O)[O-])cc([N+](=O)[O-])c1
Result value: > 100 µM
//
Compound: COc1cc(C2c3cc4c(c(O)c3C(=O)C3CCC(=O)N32)OCO4)cc(OC)c1OC (stereo unspecified)
Result value: > 100 µM
//
Compound: CC(=O)NC1C(=O)CC(c2ccccc2)N(C)C1c1ccccc1 (stereo unspecified)
Result value: > 100 µM
//
Compound: Cn1c(N)c(N=Nc2ccc(S(N)(=O)=O)cc2)c(=O)n(C)c1=O
Result value: > 100 µM
//
Compound: CCOC(=O)C(Cc1ccc(N(CCCl)CCCl)cc1)NC(=O)C(CC(C)C)NC(C)=O (stereo unspecified)
Result value: 5.68 µM
//
Compound: COC[C@H](Cc1ccccc1)N=Cc1ccccc1
Result value: > 100 µM
//
Compound: O=S(=O)(CC#CCS(=O)(=O)c1ccccc1)c1ccccc1
Result value: 27.7 µM
//
Compound: CN(C)CCCNc1ccc2nnn3c4ccc([N+](=O)[O-])cc4c(=O)c1c23
Result value: 7.11 µM
//
Compound: Cc1nc2cc(NC(=O)CN3CCN(CCN4C(=O)c5cccc6cccc(c56)C4=O)CC3)ccc2s1
Result value: 19.6 µM
//
Compound: COc1cc2c(cc1Nc1nc(Nc3ccsc3C(N)=O)c3cc[nH]c3n1)N(C(=O)CN(C)C)CCC2
Result value: 0.681 µM
//
Compound: CC(=O)OC1C(OC/C2=C/C3[C@@H](C(C)C)CC=C(C)[C@@H]3CC(OC(=O)/C=C/c3cn(C)cn3)[C@]3(C)C=C[C@@]2(O)O3)OCC(O)C1O (stereo partly specified)
Result value: > 50 µM
//
Compound: Cc1cn2cc(-c3ccncc3)nc2s1
Result value: > 100 µM
//
Compound: Fc1ccccc1N=c1oc2ccc(Br)cc2cc1-c1nc2ccccc2[nH]1
Result value: > 54.8 µM
//
Compound: CCCCCCCCCCCCCCCCCc1nc(C#N)c(N)o1
Result value: > 100 µM
//
Compound: O=C1c2ccccc2CC1C1(O)C(=O)Nc2c(Cl)cc(Cl)cc21 (stereo unspecified)
Result value: > 100 µM

====

- Tested on: SNB-78 CNS
- Experimental protocol: NCI tumour cell line growth inhibition, 48 h
Below: a set of entries, each annotated with reported TGI.

Compound: Cc1cccc2ns[s+]c12
TGI: > 100 µM

Compound: Cc1nn(C(=O)CC(=O)Nc2ccccc2Cl)c(C)c1N=Nc1ccccc1Cl
TGI: > 100 µM

Compound: CC(=O)NC(Cc1ccccc1)C(=S)N1CCCC1 (stereo unspecified)
TGI: > 100 µM

Compound: S=C(N/N=C/c1ccccc1)NC1CC(c2ccccc2)Oc2ccccc21 (stereo unspecified)
TGI: 96.1 µM

Compound: Nc1n[nH]c(=O)c2c1c(Br)cn2C1OC(CO)C(O)C1O (stereo unspecified)
TGI: > 80.5 µM

Compound: O=C(CCc1nnc2s/c(=C\c3ccc(Cl)cc3Cl)c(=O)n12)Nc1cc(Cl)c(Cl)cc1Cl
TGI: > 100 µM

====

- Test system: NCI-H460 lung
- Experimental protocol: NCI tumour cell line growth inhibition, 48 h
Response key: class 1 means TGI >= 8 µM; class 0 means TGI < 8 µM.

Compound: COC[C@H](Cc1ccccc1)N=Cc1ccccc1
Assigned category: class 1

Compound: COc1ccc(N=Nc2ccc3oc(=O)c(C(=O)Nc4ccc(OC)cc4)cc3c2)cc1
Assigned category: class 1

Compound: COc1cc(/C=C/C(=O)C(C)(C)C)cc(OC)c1OC
Assigned category: class 1

Compound: O=C(NC(c1ccccc1)C(O)C(=O)OCc1ccc2c(c1)C(=O)c1ccccc1C2=O)c1ccccc1 (stereo not given)
Assigned category: class 1

Compound: C=C(Cl)C(Cl)(CBr)CCC(Cl)C(C)C (stereo not given)
Assigned category: class 0

Compound: C[Si](C)(C)C1=C2C(=O)c3ccccc3C(=O)C2=C([Si](C)(C)C)[C@@H]2CCCC[C@H]12
Assigned category: class 1

Compound: O=C1[C@@H]2C3C=CC([C@H]4C(=O)N(CO)C(=O)[C@@H]34)[C@@H]2C(=O)N1CO
Assigned category: class 1

Compound: Cn1c([N+](=O)[O-])cnc1/C=C1\Oc2ccc(Cl)cc2C1=O
Assigned category: class 0

Compound: COc1ccc(/C=C2\CN(Cc3cn(CCCNc4ccnc5cc(Cl)ccc45)nn3)C/C(=C\c3ccc(OC)cc3)C2=O)cc1
Assigned category: class 0

Compound: CCN(CC)CCC(CNc1c2ccc(Cl)cc2nc2ccc(OC)cc12)c1ccccc1 (stereo not given)
Assigned category: class 0

Compound: CCN1CCc2sc3[nH]c(=S)n(C)c(=O)c3c2C1
Assigned category: class 1

Compound: Cc1c2cccc-2c(N(C)C)cc2c1[nH]c1ccccc12
Assigned category: class 1

Compound: CCOC(=O)C1C(=O)C=C(c2cc(C)ccc2O)CC1c1cccc(Br)c1 (stereo not given)
Assigned category: class 1

Compound: CC(=O)/C=C\C(=O)NNS(=O)(=O)c1ccc(C)cc1
Assigned category: class 1

Compound: Fc1ccccc1N=c1oc2ccc(Br)cc2cc1-c1nc2ccccc2[nH]1
Assigned category: class 1

Compound: COc1ccc(-c2nccn2-c2cc(OC)c(OC)c(OC)c2)cc1
Assigned category: class 1

Compound: CN(C)c1ccc(/C=C/C(=O)c2ccc(Nc3nc(Nc4ccc(F)cc4)nc(Nc4ccc(Cl)cc4)n3)cc2)cc1
Assigned category: class 1

Compound: CC1(C)CC(=O)C2=C(C1)OC1=C(CC(C)(C)CC1=O)C2c1ccccc1Cl (stereo not given)
Assigned category: class 1

Compound: COc1ccc(/C=C2\CC(C)CC3C2=NN(C(C)=O)C3c2ccc(OC)c(OC)c2)cc1OC (stereo not given)
Assigned category: class 1

====

- System: MCF7 breast
- Experimental protocol: NCI tumour cell line growth inhibition, 48 h
Experimental readout: TGI (µM)

Compound: CN1CCN(c2nc3c(c(=O)n(C)c(=O)n3C)n2C)CC1
Result units: µM
Limit qualifier: >
Result value: 100
--
Compound: C[N+]12C=CC=C1C(N1CCCC1)c1sc(-c3ccc(Cl)cc3)cc12 (stereo not given)
Result units: µM
Limit qualifier: =
Result value: 28.3
--
Compound: CCCCCCc1cc2cc(C(=O)Nc3cccc(C(F)(F)F)c3)c(=N)oc2cc1O
Result units: µM
Limit qualifier: =
Result value: 6.47
--
Compound: CCOc1c(OC)cc(CNNc2nccs2)cc1OC
Result units: µM
Limit qualifier: >
Result value: 100
--
Compound: Oc1ccc(-c2nc(-c3ccc4oc5ccc(-c6[nH]c(-c7ccc(O)cc7)nc6-c6ccccc6)cc5c4c3)c(-c3ccccc3)[nH]2)cc1
Result units: µM
Limit qualifier: =
Result value: 73.9

====

- Test system: SNB-19 CNS
- Experimental protocol: NCI tumour cell line growth inhibition, 48 h; in the data active = GI50 below about 0.43 µM; inactive = the rest
Possible outcomes: active, inactive

Compound: COc1ccc(N2CCN(CC(=O)N3CCN(c4nnc(-c5ccc(Cl)cc5)c(-c5ccc(Cl)cc5)n4)CC3)CC2)cc1
Assigned category: inactive
--
Compound: CC(=O)OC1C(OC/C2=C/C3[C@@H](C(C)C)CC=C(C)[C@@H]3CC(OC(=O)/C=C/c3cn(C)cn3)[C@]3(C)C=C[C@@]2(O)O3)OCC(O)C1O (stereo partly specified)
Assigned category: active
--
Compound: COc1ccc(/C=C2\CN(Cc3cn(CCCNc4ccnc5cc(Cl)ccc45)nn3)C/C(=C\c3ccc(OC)cc3)C2=O)cc1
Assigned category: inactive
--
Compound: Cc1nc2cc(NC(=O)CN3CCN(CCN4C(=O)c5cccc6cccc(c56)C4=O)CC3)ccc2s1
Assigned category: inactive
--
Compound: O=C(/C=C\c1ccc(Cl)c(Cl)c1)c1ccccc1
Assigned category: inactive
--
Compound: CCCCCCn1c(=N)n(CC(O)COc2cccc(C)c2)c2ccccc21 (stereo unspecified)
Assigned category: inactive
